Provenance of the data: the supplement of paper PMC6555819

Measured PBM binding z-score by item
Test system: LXRa homodimer (NR concentration 270 nM)
TEST: PBM binding z-score (relative to random genomic background probes); higher = stronger binding; sequences stand for … in GC…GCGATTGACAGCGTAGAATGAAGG
QUANTITY_NAME: PBM binding z-score

SEQUENCE	TEST_RESULT
CAACCTAGGTCACAGAGGTCAAAGTCCGTGCGTA	7.7
CTCGAATGGTCGTGCTCAGGTGAGTATACCAAAC	-0.51
TCGAGTAGGTTAGGCGCATTCAGAATGGCGTCGA	-0.682
TCATATAGGTAAATGCTAGGTGAAGGTCCGATCT	0.342
TGAATGAGGTTATAAGGTCAGGGAACGTTGCAAA	0.615
TCTTGTAGATCAATATAGGTTAAGAAAGTGCGCT	0.469
CTCGGAAGGTCGGTTGAGGTGAGTATACGGATAA	-0.673
TCTAGTTGGTCACGGAGGTCACACATGACGGGTA	2.42
ACAGACAGGTGAGTGCAGGTAACTCAGCTGGACG	-0.365
ATCTCTAGGTAATAAGTTCAGTGAAAGAGAGGAC	0.832
GCTTGTAGATCAAGGTTAAGAATGACTAAGCTAA	-0.618
ATATGTAGGTTAAGGGCCATTCAGGTTGGTTCGC	0.305
GCTATTAGTTGAAAAGGCAACCGAATGATTCTCG	-0.222
TCATATAGGTAAATGCTAGGCGAAAGTCCGATCT	0.304
ATCTCTAGGTAACAAGTTCAGTCAAAGAGAGGAC	0.75
CCTTACGGGTCACGACGTTATAGCACGACGAGCG	0.322
TCGAGTAGGTTAGTCGGGGCATGCAGCCAACATA	-0.427
CGTCCAAGGTCCAGGTCAGTGAAAGAGACTCGAA	0.0341
ACAGACAGCTGATGAAGGTAACTCAGGCTATCAT	-0.191
ACTATTAGTTGGCTTAGGGCAACCGATACGACGC	0.0233
TCTGCTAAGTCAGTTGGTCAGCTAACGAGCTGCC	-0.729
ACTAGCAGGCCAAGGGACACTCAAGATTAGTCCG	-0.423
ATCGAAAGGTCGAAGGTGATTATACCCACCCGAA	0.425
CCTCGGAGGACAGAAGGTCAGCGCTGTCCGCTTT	0.184
TAGACTAGGTCATTCAGGGGCCAGTATAGAAAGC	0.5
CTCGAAAGGTCGTGCTCAGGTGAGGATACCAAAC	0.268
ATCGAAAGGTCGACGAGGTGAGTAGACACCGTTT	-0.158
TCAGACCGGTGAAGGTAACTCAGGTACGCAGTCG	-0.308
CCTACTGGGCCATTCAGAGGTCATTGAGCATATG	6.54
TCTTGTAGATCAAGCAGATTAAGAAAGCCTGAGT	-0.156
TCAGGCAGGTGAAGGTAACTCAGGTACGCAGTCG	-0.208
AGTCAAAGTTCATCTAGGTAAAGTAAGATATGCT	5.01
TCTGCTAGCTCAACGATGGTCAGCTAATCTGCTA	-0.771
CAAACTATGTCAAGAGGTCAAAGTCCGCTTCCCG	5.89
TGATTGAGGTTAAAGATCAGGGAACGTGGCGTCG	0.0848
ACGATTAGTTGAGACGAGGGCAACCGATAGGTTG	-0.3
TCTTGTAGATCAATAGAGGCTAAGAAAGTGCGCT	-0.573
TCTGCTAGGTCAACGATGGTCAGCTATTCTGCTA	-0.457
CCTACTGGGACATTCAGAGGTCATTGATCATATG	7.13
ACCTACGGGTCAACGAGGTTATAGCACGCGTATA	0.64
ACTATTAGTTGAGACGAGGGCAACTGATAGGTTG	0.074
CTACCAAGGGGAACAAGGTCGTTGATTACTATTC	0.166
TCGAGTAGGTTAGTCGGGGCGTTCAGCCAACATA	-0.481
CGTGCAAGGTCAATGCTAGGTCAGTGAAAGCATT	1.91
TCGAGTAAGTTAGTCGGGGCATTCAGCCAACATA	-0.717
GGAACGAGGGCATAGTTGATAGCATCTGTCGACG	-0.66
CCAGACAGGTGAGAAGGTTACTCAGCCTCGATTA	-0.0205
TCATATAGGTAACGGTGAAAGTCGAACGATATGA	-0.274
ACCTCTAGGTAAAAGTTCAGTGAATCCCGAGGAT	0.847
CGAACTAGGTCATACAGGACAGTGAATACATTGA	0.562
TGTCAAAGTTCAAAGGTAACGAAAGTATCCACAC	4.27
